Measured DC50 by item
experimentalSystem: Androgen Receptor (Homo sapiens)
Construct: endogenous in cells; host or cells: VCaP cells
assayText: Androgen Receptor ELISA assay (PathScan AR ELISA) in VCaP cells: AR degradation, Dmax and DC50
Type: cell-based
measurementParameters: VCaP cells; Table 35; read-out: VCaP DC50

Below, each entry is followed by its recorded DC50 result.
molecule | propertyMeasured | experimentalResult
CC(C)(C)[C@H](NC(=O)CNCCOc1ccc(-c2ccc(C(=O)N[C@H]3C(C)(C)[C@H](Oc4ccc(C#N)c(Cl)c4)C3(C)C)cc2)cc1)C(=O)N1C[C@H](O)C[C@H]1C(=O)NCc1ccc(C#N)cc1 [Example 501] | DC50 | < 50 nM
CC(C)(C)[C@H](NC(=O)COCCNc1ccc(-c2ccc(C(=O)N[C@H]3C(C)(C)[C@H](Oc4ccc(C#N)c(Cl)c4)C3(C)C)cc2)cn1)C(=O)N1C[C@H](O)C[C@H]1C(=O)NCc1ccc(C#N)cc1 [Example 540] | DC50 | < 50 nM
C[C@H](NC(=O)[C@@H]1C[C@@H](O)CN1C(=O)[C@@H](NC(=O)COCCOc1ccc(-c2ccc(C(=O)N[C@H]3C(C)(C)[C@H](Oc4ccc(C#N)c(Cl)c4)C3(C)C)cc2)cc1)C(C)(C)C)c1ccc(C#N)cc1 [Example 549] | DC50 | < 50 nM

Then there is this molecule:
GET /values?readout=DC50&system=Androgen Receptor (Homo sapiens)&item= Cc1ncsc1-c1ccc([C@H](C)NC(=O)[C@@H]2C[C@@H](O)CN2C(=O)[C@@H](C(C)C)n2cc(OCC3CCN(c4ccc(C(=O)N[C@H]5C(C)(C)[C@H](Oc6ccc(C#N)c(Cl)c6)C5(C)C)cc4)CC3)cn2)cc1 [Example 436]
> 501 nM

----------
experimentalSystem: Androgen Receptor (Homo sapiens, UniProt P10275)
Construct: endogenous in cells; host or cells: VCaP cells
assayText: Androgen Receptor ELISA assay (PathScan AR ELISA) in VCaP cells: AR degradation, Dmax and DC50
Assay type: cell-based
measurementParameters: VCaP cells; Table 36; read-out: VCaP DC50
Measured DC50 by item

moleculeSmiles | DC50
Cc1ncsc1-c1ccc([C@H](CO)NC(=O)[C@@H]2C[C@@H](O)CN2C(=O)[C@@H](NC(=O)CN2CCC(CN3CCN(c4ccc(C(=O)N[C@H]5C(C)(C)[C@H](Oc6ccc(C#N)c(Cl)c6)C5(C)C)cn4)CC3)CC2)C(C)(C)C)cc1 | < 50 nM

Entry CC(C)(C)c1ccc(CNC(=O)[C@@H]2C[C@@H](O)CN2C(=O)[C@@H](NC(=O)COCCN2CCN(c3ccc(C(=O)N[C@H]4C(C)(C)[C@H](Oc5ccc(C#N)c(Cl)c5)C4(C)C)cn3)CC2)C(C)(C)C)cc1 has what DC50?
> 501 nM

----------
experimentalSystem: Androgen Receptor (Homo sapiens)
Construct: endogenous in cells; host or cells: VCaP cells
assayText: Androgen Receptor ELISA assay (PathScan AR ELISA) in VCaP cells: AR degradation, Dmax and DC50
Type: cell-based
measurementParameters: read-out: VCaP DC50; VCaP cells; Table 35
propertyMeasured: DC50

Below, each entry is followed by its recorded DC50 result.
compound | DC50
Cc1ncsc1-c1ccc([C@H](C)NC(=O)[C@@H]2C[C@@H](O)CN2C(=O)[C@@H](C(C)C)n2cc(OCCCOCCCCCOc3ccc(N4C(=S)N(c5ccc(C#N)c(C(F)(F)F)c5)C(=O)C4(C)C)cc3)cn2)cc1 | > 501 nM
Cc1nccn1-c1ccc([C@H](C)NC(=O)[C@@H]2C[C@@H](O)CN2C(=O)C(C(C)C)n2cc(OCCCOCCCCCOc3ccc(N4C(=S)N(c5ccc(C#N)c(C(F)(F)F)c5)C(=O)C4(C)C)cc3)cn2)nc1 (mixture of isomers) | > 501 nM
Cc1ncsc1-c1ccc([C@H](C)NC(=O)[C@@H]2C[C@@H](O)CN2C(=O)[C@@H](NC(=O)COC[C@@H](O)[C@H](O)COc2ccc(-c3ccc(N4C(=S)N(c5ccc(C#N)c(C(F)(F)F)c5)C(=O)C4(C)C)cc3)cc2)C(C)(C)C)cc1 | < 50 nM

Then there is this compound:
Entry Cc1ncsc1-c1ccc([C@H](C)NC(=O)[C@@H]2C[C@@H](O)CN2C(=O)[C@@H](C(C)C)n2cc(OCCCOCCC(O)CCOc3ccc(N4C(=S)N(c5ccc(C#N)c(C(F)(F)F)c5)C(=O)C4(C)C)cc3)cn2)cc1 (stereo partly shown) has what DC50?
< 50 nM

----------
experimentalSystem: Androgen Receptor (Homo sapiens, UniProt P10275)
Construct: endogenous in cells; host or cells: VCaP cells
Sequence (P10275 1-920): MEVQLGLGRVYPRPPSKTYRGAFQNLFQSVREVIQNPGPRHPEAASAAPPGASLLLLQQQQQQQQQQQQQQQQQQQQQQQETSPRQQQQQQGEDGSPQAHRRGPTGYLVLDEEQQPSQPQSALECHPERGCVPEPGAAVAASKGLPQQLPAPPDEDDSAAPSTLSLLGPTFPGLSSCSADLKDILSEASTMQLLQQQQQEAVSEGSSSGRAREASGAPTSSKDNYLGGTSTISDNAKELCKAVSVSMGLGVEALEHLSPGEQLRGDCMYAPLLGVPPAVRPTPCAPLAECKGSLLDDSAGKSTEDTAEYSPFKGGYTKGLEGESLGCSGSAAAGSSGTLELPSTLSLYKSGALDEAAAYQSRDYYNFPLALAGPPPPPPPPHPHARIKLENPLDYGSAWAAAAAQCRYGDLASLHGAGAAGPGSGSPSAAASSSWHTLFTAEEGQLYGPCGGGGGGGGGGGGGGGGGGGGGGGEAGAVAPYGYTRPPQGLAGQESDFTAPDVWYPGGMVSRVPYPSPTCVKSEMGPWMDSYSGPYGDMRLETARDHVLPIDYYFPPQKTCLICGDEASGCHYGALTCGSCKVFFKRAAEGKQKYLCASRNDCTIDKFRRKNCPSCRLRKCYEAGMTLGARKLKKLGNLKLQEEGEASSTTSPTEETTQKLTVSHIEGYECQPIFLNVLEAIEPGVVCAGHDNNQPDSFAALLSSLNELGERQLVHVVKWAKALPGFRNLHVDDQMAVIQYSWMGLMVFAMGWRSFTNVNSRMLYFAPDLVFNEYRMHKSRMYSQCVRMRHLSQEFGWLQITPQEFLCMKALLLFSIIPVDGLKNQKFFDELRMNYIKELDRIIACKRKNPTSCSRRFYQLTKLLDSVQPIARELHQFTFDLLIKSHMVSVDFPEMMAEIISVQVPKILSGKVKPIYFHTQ
assayText: Androgen Receptor ELISA assay (PathScan AR ELISA) in VCaP cells: AR degradation, Dmax and DC50
Type: cell-based
measurementParameters: read-out: VCaP DC50; VCaP cells; Table 34
propertyMeasured: DC50

Below, each entry is followed by its recorded DC50 result.
compound | DC50
Cc1ncsc1-c1ccc(CNC(=O)[C@@H]2C[C@@H](O)CN2C(=O)[C@@H](NC(=O)CNCCCCOCCCOc2ccc(N3C(=S)N(c4ccc(C#N)c(C(F)(F)F)c4)C(=O)C3(C)C)cc2)C(C)(C)C)cc1 | 51 to 500 nM
Cc1ncsc1-c1ccc(CNC(=O)[C@@H]2C[C@@H](O)CN2C(=O)[C@@H](NC(=O)COCCCCOc2ccc(-c3ccc(N4C(=S)N(c5ccc(C#N)c(C(F)(F)F)c5)C(=O)C4(C)C)cc3)cc2O)C(C)(C)C)cc1 | < 50 nM
Cc1ncsc1-c1ccc(CNC(=O)[C@@H]2C[C@@H](O)CN2C(=O)[C@@H](NC(=O)CCN2CCC(OCCOc3ccc(N4C(=S)N(c5ccc(C#N)c(C(F)(F)F)c5)C(=O)C4(C)C)cc3)CC2)C(C)(C)C)cc1 | 51 to 500 nM

Entry Cc1ncsc1-c1ccc(CNC(=O)[C@@H]2C[C@@H](O)CN2C(=O)[C@@H](NC(=O)COCCCCOc2ccc(-c3ccc(N4C(=S)N(c5ccc(C#N)c(C(F)(F)F)c5)C(=O)C4(C)C)cc3)c(O)c2)C(C)(C)C)cc1 has what DC50?
< 50 nM

----------
experimentalSystem: Androgen Receptor (Homo sapiens, UniProt P10275+P40337, T878A)
Construct: Compounds have been evaluated in this assay in LNCaP and/or VCaP cells utilizing similar protocols; endogenous in cells; host or cells: LNCaP cells
assayText: Androgen Receptor ELISA assay (PathScan AR ELISA) in LNCaP cells: AR degradation, Dmax and DC50
Type: cell-based
measurementParameters: highest percentage of Androgen Receptor degradation observed
Measured Dmax by item

Below, each entry is followed by its recorded Dmax result.
moleculeSmiles | experimentalResult
Cc1ncsc1-c1ccc(CNC(=O)[C@@H]2C[C@@H](O)CN2C(=O)[C@@H](NC(=O)COCCCOCCCCCOc2ccc(N3C(=S)N(c4ccc(C#N)c(Cl)c4)C(=O)C3(C)C)cc2)C(C)(C)C)cc1 | > 71%
Cc1ncsc1-c1ccc(CNC(=O)[C@@H]2C[C@@H](O)CN2C(=O)[C@@H](NC(=O)COCCO[C@H](C)[C@@H](C)OCCOc2ccc(N3C(=S)N(c4ccc(C#N)c(C(F)(F)F)c4)C(=O)C3(C)C)cc2)C(C)(C)C)cc1 | > 71%
Cc1ncsc1-c1ccc(CNC(=O)[C@@H]2C[C@@H](O)CN2C(=O)[C@@H](NC(=O)COCCOCCOCCOc2ccc(N3C(=S)N(c4ccc([N+](=O)[O-])c(C(F)(F)F)c4)C(=O)C3(C)C)cc2)C(C)(C)C)cc1 | 51 to 70%

GET /values?readout=Dmax&system=Androgen Receptor (Homo sapiens, UniProt P10275+P40337, T878A)&item= Cc1ncsc1-c1ccc(CNC(=O)[C@@H]2C[C@@H](O)CN2C(=O)[C@@H](NC(=O)COCCOCCN(C)C(=O)CCCc2ccc(N3C(=S)N(c4ccc(C#N)c(C(F)(F)F)c4)C(=O)C3(C)C)cc2)C(C)(C)C)cc1
51 to 70%

GET /values?readout=Dmax&system=Androgen Receptor (Homo sapiens, UniProt P10275+P40337, T878A)&item= Cc1ncsc1-c1ccc(CNC(=O)[C@@H]2C[C@@H](O)CN2C(=O)[C@@H](NC(=O)CCOCC#CC#CCOc2ccc(N3C(=S)N(c4ccc(C#N)c(C(F)(F)F)c4)C(=O)C3(C)C)cc2)C(C)(C)C)cc1
26 to 50%

GET /values?readout=Dmax&system=Androgen Receptor (Homo sapiens, UniProt P10275+P40337, T878A)&item= Cc1ncsc1-c1ccc(CNC(=O)[C@@H]2C[C@@H](O)CN2C(=O)[C@@H](NC(=O)COCCCCCOc2ccc(-c3ccc(N4C(=S)N(c5ccc(C#N)c(C(F)(F)F)c5)C(=O)C4(C)C)cc3)cc2)C(C)(C)C)cc1
> 71%

GET /values?readout=Dmax&system=Androgen Receptor (Homo sapiens, UniProt P10275+P40337, T878A)&item= Cc1ncsc1-c1ccc(CNC(=O)[C@@H]2C[C@@H](O)CN2C(=O)[C@@H](NC(=O)COCCCOCCCCOc2ccc(N3C(=S)N(c4ccc(C#N)c(C(F)(F)F)c4)C(=O)C3(C)C)cc2F)C(C)(C)C)cc1
> 71%

GET /values?readout=Dmax&system=Androgen Receptor (Homo sapiens, UniProt P10275+P40337, T878A)&item= Cc1ncsc1-c1ccc(CNC(=O)[C@@H]2C[C@@H](O)CN2C(=O)[C@@H](NC(=O)COCCOCCOc2ccc(-c3ccc(N4C(=S)N(c5ccc(C#N)c(C(F)(F)F)c5)C(=O)C4(C)C)cc3F)cc2)C(C)(C)C)cc1
> 71%

GET /values?readout=Dmax&system=Androgen Receptor (Homo sapiens, UniProt P10275+P40337, T878A)&item= Cc1ncsc1-c1ccc(CNC(=O)[C@@H]2C[C@@H](O)CN2C(=O)[C@@H](NC(=O)COCCCOCCCCCOc2ccc(N3C(=S)N(c4ccc(C#N)c(C(F)(F)F)c4)C(=O)C3(C)C)cc2)C(C)(C)C)cc1
> 71%

Value source: patent US11427548B2
